SYSTEM UNDER TEST: T1, HpRap1B (Hansenula polymorpha DL-1, UniProt W1QDN2 1-576)
T1 sequence: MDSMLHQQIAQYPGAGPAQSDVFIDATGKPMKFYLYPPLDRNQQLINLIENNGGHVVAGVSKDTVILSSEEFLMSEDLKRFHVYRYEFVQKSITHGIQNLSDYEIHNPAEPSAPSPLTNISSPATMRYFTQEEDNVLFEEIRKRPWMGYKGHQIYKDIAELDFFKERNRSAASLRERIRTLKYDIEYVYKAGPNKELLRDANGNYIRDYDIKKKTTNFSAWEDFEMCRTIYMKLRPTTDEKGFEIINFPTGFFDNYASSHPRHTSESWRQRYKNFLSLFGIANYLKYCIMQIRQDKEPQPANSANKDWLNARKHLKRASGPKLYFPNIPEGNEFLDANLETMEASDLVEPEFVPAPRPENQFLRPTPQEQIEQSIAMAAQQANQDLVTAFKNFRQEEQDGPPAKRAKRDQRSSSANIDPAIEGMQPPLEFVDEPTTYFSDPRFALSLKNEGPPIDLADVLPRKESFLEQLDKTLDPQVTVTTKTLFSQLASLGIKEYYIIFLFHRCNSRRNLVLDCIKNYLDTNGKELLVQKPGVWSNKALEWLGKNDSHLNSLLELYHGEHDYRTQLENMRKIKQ
ASSAY NAME: SPR; kinetic fit; SPR: 10 mM HEPES-NaOH pH 7.5, 150 mM NaCl, 0.5 mM DTT, 0.05% Tween 20, 1 mg/ml BSA, 0.02 mg/ml salmon sperm DNA; competition 2 nM protein with 20 or 200 nM competitor. EMSA: 20 mM HEPES-NaOH pH 7.5, 50 mM NaCl, 0.2 mg/ml BSA, 5% glycerol, 0.1 mg/ml salmon sperm DNA, room temperature
PROTOCOL CONDITIONS: protein: recombinant; 3' overhang 20 nt on strand 2
ENDPOINT LABEL: Kd (nM)
Numeric answer only, unit nM assumed.

1. RPS14 (dsDNA) DNA 1: GTGTTCAGGTGTGAGGTGTGTTT DNA 2: AAACACACCTCACACCTGAACACCCTCTACGTCCTCCTGCTCC = 0.048

Attention now turns to another entry.
Bench note: what Kd did PICKU (SPR) (dsDNA) DNA 1: TGAACTAGGAGCGAGGTGTGTTAC DNA 2: GTAACACACCTCGCTCCTAGTTCACCTCTACGTCCTCCTGCTCC show?
0.27

Ref: paper PMC6510891
